Tested on: COLO 205
Measurement Protocol: NCI tumour cell line growth inhibition, 48 h
Calls of active or inactive are those of the source. Cut-off read from the data, not from the text of the source: active = GI50 up to about 1.1 µM and inactive = higher.
Endpoint Label: GI50

O=Cc1ccc(CCl)cc1	48 µM (inactive)
CCN(CC)CC(=N)N(CC)c1ccccc1	> 100 µM (inactive)
N/N=C(\Nc1ccccc1)SCc1ccccc1	> 100 µM (inactive)
OCCOCn1nc(-c2ccccc2)nc1-c1cnccn1	> 100 µM (inactive)

Data request: Field request: GI50 | item: COc1ccc(-c2nnc(-c3nsc4ccccc34)o2)cc1
Data returned: > 100 µM (inactive)

Data request: Field request: GI50 | item: CC(=O)NC(C)(C)C1CCC(C)CC1 (configuration not stated)
Data returned: > 100 µM (inactive)

Data request: Field request: GI50 | item: Cc1ccc(NC(=S)SCCC(=O)O)cc1
Data returned: > 100 µM (inactive)

====

The following compounds are listed with their measured GI50 values.
System: SNB-75
Measurement Protocol: NCI tumour cell line growth inhibition, 48 h
Calls of active or inactive are those of the source. No stated cut-off is given here; in the data, active = GI50 up to about 1.1 µM and inactive = higher.

O=[N+]([O-])c1ccc(CN(CCCl)OCCCl)cc1	> 100 µM (inactive)
CCCCCCC(/C=N/O)C(C)(O)CCC (stereo not drawn)	> 100 µM (inactive)
COc1ccccc1/N=N/C(C(=O)c1ccccc1)C(=O)c1ccccc1	19.9 µM (inactive)
O=C(/N=N/c1ccc([N+](=O)[O-])cc1)NNc1ccc([N+](=O)[O-])cc1	23.9 µM (inactive)

Data request: Field request: GI50 | item: COC(=O)C1=C(C)N(NC(=O)c2cccc(Cl)c2)C(C)(O)C12CCOC2=O (stereo not drawn)
Data returned: > 100 µM (inactive)

Data request: Field request: GI50 | item: c1cc(CNCCN2CCNCC2)ccn1
Data returned: > 100 µM (inactive)

Data request: Field request: GI50 | item: CN1CCN2CCN(C)CCN(CC1)CC2
Data returned: > 100 µM (inactive)

Data request: Field request: GI50 | item: COc1ccc(OC)c2c3c(ccc12)C(c1ccccc1)OC3=O (stereo not drawn)
Data returned: 38.7 µM (inactive)

Data request: Field request: GI50 | item: O=P1(C(O)c2ccccc2)N(Cc2ccccc2)[C@@H]2CCCC[C@H]2N1Cc1ccccc1 (stereo partly drawn)
Data returned: 18.4 µM (inactive)

Data request: Field request: GI50 | item: O=c1[nH]c(=O)n([C@@H]2O[C@H](CO)[C@@H](O)[C@H]2O)cc1F [5-FLUOROURIDINE]
Data returned: 2.25 µM (inactive)

Data request: Field request: GI50 | item: COC(OC)[C@@H]1OC[C@@H](O)[C@@H]1n1cnc2c(N)ncnc21
Data returned: > 100 µM (inactive)

Data request: Field request: GI50 | item: CC12CCC(CC(=O)/C1=C(/Br)I)C2(C)C (stereo not drawn)
Data returned: 16.3 µM (inactive)

Data request: Field request: GI50 | item: C=Cc1c(C)c(OC)cc2c1Oc1ccc(OC)c(C)c1CC2
Data returned: 84.3 µM (inactive)

====

Test system: HOP-92
Measurement Protocol: NCI tumour cell line growth inhibition, 48 h
Calls of active or inactive are those of the source. Rule as the data show it: active = GI50 up to about 1.1 µM and inactive = higher.
A correct response names exactly one class from active, inactive

CCN(CC)Cc1ccc2cccnc2c1O	inactive
CC1=CC(=O)/C(=C/Nc2nc(-c3cccc([N+](=O)[O-])c3)cs2)C(=O)O1	inactive
CCOC(=O)C(CC(C)C)NC(=O)CSc1nnc(COc2ccc(Cl)cc2)n1-c1ccccc1 (centres undefined)	inactive
CC(=O)OCC(OC(C)=O)C(OC(C)=O)C(/C=N\Nc1nc2ccccc2c(=O)[nH]1)=N\Nc1nc2ccccc2c(=O)[nH]1 (centres undefined)	inactive

Data request: Per the assay record, what outcome was assigned to C1CCCCC2(CCCCCCCCC3(CCC1)SCCS3)SCCS2 ?
Data returned: inactive

Data request: Per the assay record, what outcome was assigned to CCOC(=O)/C=C(/C(=O)OCC)n1ccc(=O)n(Cc2cnnn2CCCCOC(C)=O)c1=O ?
Data returned: active

Data request: Per the assay record, what outcome was assigned to COC(=O)C(COC(=O)/C=C/c1ccc(OC(C)=O)c(OC(C)=O)c1)OC(=O)/C=C/c1ccc(OC(C)=O)c(OC(C)=O)c1 (centres undefined) ?
Data returned: inactive

Data request: Per the assay record, what outcome was assigned to N#CC(C#N)=C(N)/C(C#N)=C/c1ccc2[nH]ccc2c1 ?
Data returned: inactive

Data request: Per the assay record, what outcome was assigned to CCCCCCCCCCCCCCCCCCNC(=S)N/C=C1\C(=O)Nc2ccccc2C1=O ?
Data returned: inactive

====

Test system: MDA-N
Measurement Protocol: NCI tumour cell line growth inhibition, 48 h
Active and inactive are the calls of the source. Rule as the data show it: active = GI50 up to about 1.1 µM and inactive = higher.
A correct response names exactly one class from 1 (active), 0 (inactive)

Take a look at these entries with their results.
Cc1cccc2c1NC(=O)/C2=N\Nc1ccccc1[N+](=O)[O-]	0
CCCCCCCCCCCCCCCCCCNC(=S)N/C=C1\C(=O)Nc2ccccc2C1=O	0
O=C(O)c1cc(NC2=C(Cl)C(=O)c3c(O)ccc(O)c3C2=O)ccc1O	0

Data request: Per the assay record, what outcome was assigned to CCSc1n/c(=C\c2ccco2)c2nncn12 ?
Data returned: 0

Data request: Per the assay record, what outcome was assigned to CC(C)=CCc1c(OC(=O)c2c(C)cc(O)cc2O)cc(CO)c(CO)c1O ?
Data returned: 0

Data request: Per the assay record, what outcome was assigned to COc1ccccc1/C=C/c1nc2ccccc2o1 ?
Data returned: 0

Data request: Per the assay record, what outcome was assigned to OCCOCn1nc(-c2ccccc2)nc1-c1cnccn1 ?
Data returned: 0

Data request: Per the assay record, what outcome was assigned to C#Cc1nc(N)c2ncn(C3OC(COS(N)(=O)=O)C(O)C3O)c2n1 (configuration not stated) ?
Data returned: 1

Data request: Per the assay record, what outcome was assigned to CN1c2ccc(Cl)cc2C(=O)NC1c1ccc([N+](=O)[O-])s1 (configuration not stated) ?
Data returned: 0

====

The following compounds are listed with their measured GI50 values.
Test system: CAKI-1
Measurement Protocol: NCI tumour cell line growth inhibition, 48 h
Calls of active or inactive are those of the source. Rule as the data show it: active = GI50 up to about 1.1 µM and inactive = higher.

CSc1ncc2c(n1)C(C#N)C1Sc3ccccc3N1C2=O (stereo not given)	> 100 µM (inactive)
CC1CNC(c2ccc(-c3nc(-c4ccc(C5=NC(C)CN5)cc4)nc(N(C)C)n3)cc2)=N1 (stereo not given)	17.6 µM (inactive)
C/N=c1\ss/c(=N\C(=S)N(C)C)n1C	> 100 µM (inactive)
CC(C)(C)OC(=O)NCC(c1c[nH]c2cc(Br)ccc12)c1c[nH]c2cc(Br)ccc12	26.9 µM (inactive)

Data request: Request: GI50, test system CAKI-1, entry CC(=O)NC(CC(C)C)C(=O)NC(Cc1ccccc1)C(=S)N1CCCC1 (stereo not given)
Data returned: > 100 µM (inactive)

====

System: LOX IMVI
Measurement Protocol: NCI tumour cell line growth inhibition, 48 h
Activity calls are given as the source filed them. No stated cut-off is given here; in the data, active = GI50 up to about 1.1 µM and inactive = higher.
A correct response names exactly one class from active, inactive

S=C(N/N=C/c1ccccn1)Nc1ccc(Cl)cc1	active
CCC(=O)Nc1ccc(N2C(=O)/C(=C/c3ccc(O)c(OC)c3)N=C2c2ccccc2)cc1	inactive
CCOc1ccc2nc3nc(O)nc(C)c3c(NC(C)(CO)CO)c2c1	inactive
O=[N+]([O-])c1ccc(/C=N/C2CCCCC2)cc1	inactive
CCOC(=O)C1=C(Cl)c2cccnc2C1=O	inactive
C[C@H](CC[C@@H](O)C(C)(C)O)[C@H]1CC[C@@]2(C)[C@@H]3CC=C4[C@@H](CC[C@H](O)C4(C)C)[C@]3(C)C(=O)C[C@]12C [BRYODULCOSIGENIN]	inactive
N/C(=N\O)NCCN1CCCCCCC1	inactive
c1ccc(N/N=C2\CC(c3ccccc3)Oc3ccccc32)cc1 (stereo unspecified)	inactive

Now examine the next entry.
Data request: Per the assay record, what outcome was assigned to CCC1C(c2ccccc2O)c2cc3c(cc2OC1N1CCOCC1)OCO3 (stereo unspecified) ?
Data returned: inactive

====

System: T47D
Measurement Protocol: NCI tumour cell line growth inhibition, 48 h
Calls of active or inactive are those of the source. No stated cut-off is given here; in the data, active = GI50 up to about 1.1 µM and inactive = higher.
The following compounds are listed with their measured GI50 values.

These recorded examples may help you get a feel for the data.
O=C(NC/C(Cl)=C/Cl)Nc1cccc2c1CCCC2	97.9 µM (inactive)
CCOc1ccc(N/C(=C(/C(Cl)=C(/Cl)NCCO)[N+](=O)[O-])n2nnc3ccccc32)cc1	18.2 µM (inactive)
CCC1C(c2ccccc2O)c2cc3c(cc2OC1N1CCOCC1)OCO3 (stereo unspecified)	13.2 µM (inactive)
O=C(O)C1CCCN(CCc2c[nH]c3ccccc23)C1 (stereo unspecified)	> 100 µM (inactive)
CCOC(=O)C(CC(C)C)NC(=O)CSc1nnc(COc2ccc(Cl)cc2)n1-c1ccccc1 (stereo unspecified)	14.4 µM (inactive)

Data request: Field request: GI50 | item: COc1ccc(N[C@H](CSc2ccc(C)cc2)c2ccc(F)cc2)cc1
Data returned: 24.6 µM (inactive)

Data request: Field request: GI50 | item: CSc1ncc2c(n1)C(C#N)C1Sc3ccccc3N1C2=O (stereo unspecified)
Data returned: > 100 µM (inactive)

Data request: Field request: GI50 | item: CC1=CCC(C(C)(C)NC(=O)c2ccccc2)C/C1=N/O (stereo unspecified)
Data returned: > 100 µM (inactive)

Data request: Field request: GI50 | item: CC(C)(C)C1(COC(=O)c2ccc(N)cc2)COC1
Data returned: 24.4 µM (inactive)

Data request: Field request: GI50 | item: CC1(C)Cc2c(c3ccccc3c3nc4c(nc23)c2c(c3ccccc34)OC(C)(C)C2)O1
Data returned: > 100 µM (inactive)

Data request: Field request: GI50 | item: OC1(c2ccc(Cl)cc2)C(N2CCCC2)c2ccccc2C2=NCCN21 (stereo unspecified)
Data returned: 17.7 µM (inactive)
